cond: buffer; pH 7.4; 200.0 µM
solubility kinetic: recorded values

compound	solubility kinetic
Cn1c(COc2ccc(C(=O)O)cc2)nc2ccccc21	> 42.3 µg/mL

input: For the compound shown here, CN(C)CCNC(=O)c1ccccc1-c1cc2ccccc2c(=O)o1 , give the reported solubility kinetic.
output: > 50.5 µg/mL

input: Can you share its solubility kinetic? I mean this compound: Cc1ccc(S(=O)(=O)N2CCOCC2)cc1C(=O)NC(C)CCc1ccccc1 (stereo not given)
output: 25.1 µg/mL

input: Item under review: O=C(Nc1cccc(Cl)c1)c1cc(F)cc2c1OCOC2 . Reported solubility kinetic?
output: < 0.7 µg/mL

input: Look up solubility kinetic for this compound: CC(Sc1nc2ccccc2[nH]1)C(=O)Nc1ccccc1F (stereo not given)
output: 43.9 µg/mL

input: Suppose we examine the compound O=C(COC(=O)CCC(=O)c1ccc(F)cc1)Nc1ccc(Cl)cn1 ; what solubility kinetic value has been reported?
output: 21.1 µg/mL

input: For COc1ccc(C=O)c2[nH]c3c(Cl)ncnc3c12 , what is its reported solubility kinetic?
output: 3.4 µg/mL

input: Entry under review: COc1ccc(NC(=O)C(c2ccc(Cl)cc2)C(C)C)cn1 (stereo not given) . Reported solubility kinetic?
output: 13.5 µg/mL

input: Name the reported solubility kinetic value associated with the compound COc1ccccc1CNC(=O)c1nccnc1CO
output: > 41 µg/mL
